molecular target: human sodium channel NaV1.2 (Homo sapiens, UniProt Q99250); test: NaV1.2 inhibition, automated patch-clamp (Q-Patch HTX), slow inactivated state (state C); type: cell-based; conditions: hNaV1.2 CHO cells, slow inactivated state; read-out: NaV1.2 IC50
Sequence (Q99250 whole entry): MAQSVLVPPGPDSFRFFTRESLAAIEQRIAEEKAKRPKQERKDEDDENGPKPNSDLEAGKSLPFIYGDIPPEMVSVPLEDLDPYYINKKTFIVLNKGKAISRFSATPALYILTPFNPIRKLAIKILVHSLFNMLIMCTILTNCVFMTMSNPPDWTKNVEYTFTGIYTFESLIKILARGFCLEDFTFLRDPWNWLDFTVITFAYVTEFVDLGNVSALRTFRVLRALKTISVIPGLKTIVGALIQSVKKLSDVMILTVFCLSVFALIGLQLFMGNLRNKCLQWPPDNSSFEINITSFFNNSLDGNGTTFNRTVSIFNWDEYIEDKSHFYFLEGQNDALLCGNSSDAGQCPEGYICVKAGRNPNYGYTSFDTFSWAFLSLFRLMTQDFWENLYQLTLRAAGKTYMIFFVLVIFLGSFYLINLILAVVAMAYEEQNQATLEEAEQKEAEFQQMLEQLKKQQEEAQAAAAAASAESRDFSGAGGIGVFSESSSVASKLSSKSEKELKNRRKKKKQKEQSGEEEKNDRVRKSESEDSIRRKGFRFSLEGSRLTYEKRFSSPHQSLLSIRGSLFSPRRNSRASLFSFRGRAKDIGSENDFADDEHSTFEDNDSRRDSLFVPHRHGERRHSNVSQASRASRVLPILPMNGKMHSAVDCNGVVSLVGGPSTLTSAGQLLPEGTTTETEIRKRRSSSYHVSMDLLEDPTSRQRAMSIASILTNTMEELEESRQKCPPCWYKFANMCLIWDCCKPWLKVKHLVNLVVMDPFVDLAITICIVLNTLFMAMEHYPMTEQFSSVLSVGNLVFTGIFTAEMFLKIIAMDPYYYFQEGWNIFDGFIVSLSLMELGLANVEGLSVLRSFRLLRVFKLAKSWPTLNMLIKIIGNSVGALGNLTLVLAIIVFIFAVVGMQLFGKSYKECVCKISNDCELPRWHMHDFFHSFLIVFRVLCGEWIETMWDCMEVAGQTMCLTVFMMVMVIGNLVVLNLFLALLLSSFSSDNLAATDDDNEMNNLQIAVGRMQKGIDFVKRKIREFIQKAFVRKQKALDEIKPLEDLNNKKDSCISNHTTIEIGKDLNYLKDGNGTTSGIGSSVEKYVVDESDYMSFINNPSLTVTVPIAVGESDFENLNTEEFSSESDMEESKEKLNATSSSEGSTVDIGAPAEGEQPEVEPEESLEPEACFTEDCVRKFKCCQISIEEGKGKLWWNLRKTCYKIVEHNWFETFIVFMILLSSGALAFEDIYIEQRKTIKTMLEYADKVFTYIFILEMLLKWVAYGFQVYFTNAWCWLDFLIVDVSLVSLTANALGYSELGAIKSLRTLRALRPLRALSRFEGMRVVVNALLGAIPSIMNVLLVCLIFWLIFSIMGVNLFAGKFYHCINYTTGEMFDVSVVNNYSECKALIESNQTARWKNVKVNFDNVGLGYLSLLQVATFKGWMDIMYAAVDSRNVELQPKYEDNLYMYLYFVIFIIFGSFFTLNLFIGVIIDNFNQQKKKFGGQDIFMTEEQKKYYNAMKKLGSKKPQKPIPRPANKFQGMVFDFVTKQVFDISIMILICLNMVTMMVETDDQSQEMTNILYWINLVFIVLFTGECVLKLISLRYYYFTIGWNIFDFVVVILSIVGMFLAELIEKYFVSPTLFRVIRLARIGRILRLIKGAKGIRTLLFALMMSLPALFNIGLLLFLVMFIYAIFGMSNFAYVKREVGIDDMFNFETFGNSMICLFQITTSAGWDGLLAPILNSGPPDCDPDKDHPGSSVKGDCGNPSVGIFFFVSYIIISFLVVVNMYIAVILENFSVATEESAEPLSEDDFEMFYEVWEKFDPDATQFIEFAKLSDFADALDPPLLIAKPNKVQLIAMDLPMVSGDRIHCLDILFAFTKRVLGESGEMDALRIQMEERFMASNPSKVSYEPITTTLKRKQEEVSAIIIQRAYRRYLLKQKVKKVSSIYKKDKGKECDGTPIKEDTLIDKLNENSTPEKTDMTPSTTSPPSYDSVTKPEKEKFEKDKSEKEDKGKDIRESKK
pIC50: −log10 of the molar value.
The entries below are paired with their reported pIC50.
measure: pIC50

• COc1ccccc1OC1CCC2(CCN(CC3CCc4cccnc43)C2)C1 (stereo not shown) = 5.62
• c1ccc(O[C@H]2COC3(C2)CN(C[C@@H]2CCc4ccccc42)C3)cc1 (single isomer, unassigned) = 6.41
• Fc1ccc(OC2CCN(CCC3Cc4ccccc4C3)CC2)cc1 = 5.72
• c1ccc2c(c1)CCC1(CCN(CCO[C@H]3CCc4ccccc43)CC1)O2 = 6.44

---

molecular target: UniProt:Q99250; assay: NaV1.2 inhibition, automated patch-clamp (Q-Patch HTX), slow inactivated state (state C); type: cell-based; details: 1 μM compound; hNaV1.2 CHO cells, slow inactivated state; read-out: NaV1.2 (% inh), 1 μM
We use 10% as the dividing line for inhibition at 1 µM: on or above the line is 1 (yes), below is 0 (no).

- O=C1c2ccccc2CN1CCN1CCC(Oc2ccc(F)cc2)CC1: 1 (yes)
- COc1ccccc1OC1CCN(CC2Cc3cccnc3C2)CC1 (centres unmarked): 0 (no)
- Fc1ccc(OC2CCN(CC3Cc4ccncc4C3)CC2)cc1 (centres unmarked): 0 (no)
- O=C1c2ccccc2CCN1CCN1CCC(Oc2ccccc2)CC1: 1 (yes)
- OC1(CN2CC[C@@H](Oc3ccc(F)cc3)C2)COCc2ccccc21 (some centres unmarked): 0 (no)
- Fc1ccc(OC2CCN(CCC3CCOCC3)CC2)cc1: 0 (no)
- Fc1ccc(OC2CCN(CCC3COc4cccnc43)CC2)cc1 (centres unmarked): 1 (yes)
- COc1ccccc1O[C@H]1CCN(CC2Cc3cccnc3C2)[C@@H](C)C1 (some centres unmarked): 1 (yes)
- c1ccc2c(c1)CCC2CN1CCC2(CCc3ncccc3O2)CC1 (centres unmarked): 0 (no)
- Fc1ccc(O[C@@H]2CCCN(CC3CCc4ccccc43)C2)cc1 (some centres unmarked): 1 (yes)
- O=C1Nc2ccccc2CC12CCN(C[C@@H](O)COc1ccccc1)CC2: 1 (yes)
- CC(C1CCc2ccccc21)N1CCC(Oc2ccc(F)cc2)CC1 (centres unmarked): 1 (yes)
- c1ccc2c(c1)CCC1(CCN(CCC3Cc4cccnc4C3)CC1)O2 (centres unmarked): 0 (no)
- O=C1c2ccc(F)cc2CN1CCN1CCC(Oc2ccc(F)cc2)CC1: 1 (yes)
- CN1Cc2ccccc2C(CCN2CCC(Oc3ccc(F)cc3)CC2)C1 (centres unmarked): 0 (no)
- O=C1c2ccccc2CCN1CCN1C[C@@H]2C[C@H](C1)N(c1ccccc1)C2: 1 (yes)
- O[C@@H](CO[C@H]1CCCc2ccccc21)CN1CCN(Cc2ccccc2)CC1: 1 (yes)
- Fc1ccc(OC2CCN(CCC3COc4ccccc43)CC2)cc1 (centres unmarked): 1 (yes)
- Fc1ccc(OC2CCN(CC3COc4ccccc43)CC2)cc1 (centres unmarked): 1 (yes)

---

target: human sodium channel NaV1.2 (Homo sapiens); test: NaV1.2 inhibition, automated patch-clamp (Q-Patch HTX), slow inactivated state (state C); type: cell-based; settings: reference compound, Test 3; read-out: IC50 (μM) for NaV1.2 slow inactivated state, Test 3
measure: IC50

* CN1CCN(c2ncc(-c3cc(Cl)cc(Cl)c3Cl)c(N)n2)CC1 | 0.6 µM
* Nc1nnc(-c2cccc(Cl)c2Cl)c(N)n1 [lamotrigine, reference compound] | 25 µM

---

target: recombinant human serotonin receptor 5-HT2A (Homo sapiens); construct: expressed in transfected cells; method B: loaded with Ca2+ dye; experiment: 5-HT2A antagonist Ca2+ assay in CHO-K1 cells (method A aequorin luminescence / method B FLIPR fluorescence); format: cell-based; conditions: antagonist mode vs EC80 of reference agonist, method A or B, read-out: 5HT2A IC50
Decide using IC50 alone. Strictly below 200 nM: Y. Equal to or above 200 nM: N.

* O=C1CCc2ccccc2N1CCN1CCC(Oc2ccc(F)cc2)CC1 | Y
* O[C@@H](COC1CCCCC1)CN1[C@@H]2CC[C@H]1CN(c1nccs1)C2 | N
* COc1cccc(CN2CCC3(CCN(c4ccccc4)C3)C2)c1 (stereo not drawn) | N
* COc1ccc2c(c1)C(CN1CCC(Oc3cncnc3)CC1)CC2 (stereo not drawn) | N
* O[C@@H](CCN1CCC(Oc2ccccc2)CC1)c1ccccc1 | Y
* COc1ccccc1OC1CCN(CC2Cc3ccccc3C2)[C@@H](C)C1 (single isomer, unassigned) [Example 147] | Y
* c1ccc2c(c1)CCC1(CCN(CCC3CCc4ccccc43)CC1)O2 (stereo not drawn) | Y
* C[C@H]1C[C@]2(CCc3ccccc3O2)CCN1CCN1CCc2ccccc2C1=O | Y
* O[C@@H](CO[C@@H]1CCCc2ccccc21)CN1CC[C@@H](Oc2ccc(F)cc2)C1 | N

---

target: recombinant human serotonin receptor 5-HT2A (Homo sapiens, UniProt P28223); construct: expressed in transfected cells; method B: loaded with Ca2+ dye; experiment: 5-HT2A antagonist Ca2+ assay in CHO-K1 cells (method A aequorin luminescence / method B FLIPR fluorescence); assay type: cell-based; details: antagonist mode vs EC80 of reference agonist, method A or B, read-out: 5HT2A IC50
Sequence (P28223 whole entry): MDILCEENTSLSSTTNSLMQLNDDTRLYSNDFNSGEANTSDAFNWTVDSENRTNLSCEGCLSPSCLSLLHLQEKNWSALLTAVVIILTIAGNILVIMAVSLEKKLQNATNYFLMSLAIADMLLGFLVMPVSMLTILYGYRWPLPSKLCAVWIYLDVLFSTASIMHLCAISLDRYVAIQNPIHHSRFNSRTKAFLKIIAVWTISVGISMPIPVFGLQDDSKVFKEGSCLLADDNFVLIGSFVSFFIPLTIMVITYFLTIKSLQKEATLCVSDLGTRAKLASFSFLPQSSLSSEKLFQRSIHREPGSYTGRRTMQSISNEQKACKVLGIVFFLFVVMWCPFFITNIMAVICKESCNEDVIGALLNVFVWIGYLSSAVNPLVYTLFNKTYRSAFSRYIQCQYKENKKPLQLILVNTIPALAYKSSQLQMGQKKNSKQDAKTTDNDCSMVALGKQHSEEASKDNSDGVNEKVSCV
measure: log10 IC50 (log10 of the value in nM)

* c1ccc(O[C@H]2COC3(C2)CN(C[C@@H]2CCc4ccccc42)C3)cc1 (single isomer, unassigned) | 2.45
* c1ccc(O[C@H]2COC3(CCN(C[C@H]4CCc5ccccc54)CC3)C2)cc1 (single isomer, unassigned) | 1.30
* OC1(CN2CCC3(CCc4ccccc4O3)CC2)COCc2ccccc21 (stereo not drawn) | 3.04
* Fc1ccccc1OC1CCN(CC2COc3ccccc32)CC1 (stereo not drawn) | 1.60
* O[C@@H](COC1CCCCC1)CN1CCC2(CCc3ccccc3O2)CC1 | 2.18
* O[C@H](COC1CCCCC1)CN1C[C@@H]2C[C@H]1CN2Cc1ccccc1 | 3.68
* c1ccc2c(c1)CCC1(CCN(CCC3Cc4ccncc4C3)CC1)O2 (stereo not drawn) | 2.40
* Fc1ccc(OC2CCN(CCC3COc4ccccc43)CC2)cc1 (stereo not drawn) | 1.90
* OC(CO[C@H]1CCc2ccccc21)CN1CC[C@@H](Oc2cccc(F)c2)C1 (stereo partly drawn) | 3.67
* COc1ccccc1OC1CCC2(CCN(CC3CCc4cccnc43)C2)C1 (stereo not drawn) | 2.64
* OC(CO[C@H]1CCCc2ccccc21)CN1CC[C@H](Oc2ccc(F)cc2)C1 (stereo partly drawn) | 3.41
* Fc1ccc(COC2CCN(CC3CCOc4ccccc43)CC2)cc1 (stereo not drawn) | 2.32
* COc1ccc2c(c1)C(CN1CCC(Oc3ccccn3)CC1)CC2 (stereo not drawn) | 2.18
* O=C1c2ccccc2CCN1CCN1CCCC(Oc2ccc(F)cc2)CC1 (stereo not drawn) | 2.28
* N#Cc1ccc(OCCN2CCN(c3nsc4ccccc34)CC2)cc1 | 1.00
* c1ccc([C@@H]2COC3(CCN(C[C@H]4CCc5ccccc54)CC3)C2)cc1 (single isomer, unassigned) | 1.60
* c1ccc(OC2COC3(C2)CN(CC2CCc4ccccc42)C3)cc1 (single isomer, unassigned) | 2.70
* COc1cccc(OC2CCN(CCCN3CCc4ccccc4C3=O)CC2)c1 | 2.99
* COc1cccc(CCCN2CCC(Oc3ccccc3)CC2)c1 | 2.40
* O=C1c2ccccc2CCN1CCN1CCN(c2ccccc2)CC1 | 2.65
* CN(C)Cc1ccc2c(c1)C(=O)N(CCN1CCC(Oc3ccc(F)cc3)CC1)CCC2 | 2.43
* Fc1ccc(OC2CCCN(CC3CCc4ccccc43)CC2)cc1 (stereo not drawn) | 2.36
* Fc1ccc(OC2CCN(CCC3CCc4ccccc43)CC2)cc1 (stereo not drawn) | 1.78
* OC(COC1CCCCC1)CN1C[C@H]2C[C@@H](C1)N2c1ccccc1 (stereo partly drawn) | 2.45
* COc1ccc2c(c1)C(CN1CCC(Oc3ccncc3)CC1)CC2 (stereo not drawn) | 2.76
* O=C1c2ccccc2CCN1CCN1CCC2(CCc3ccccc3O2)CC1 | 1.85

---

The entries below are paired with their reported inhibition at 1 µM.
molecular target: human sodium channel NaV1.2 (Homo sapiens); experiment: NaV1.2 inhibition, automated patch-clamp (Q-Patch HTX), slow inactivated state (state C); format: cell-based; conditions: 1 μM compound; hNaV1.2 CHO cells, slow inactivated state; read-out: NaV1.2 (% inh), 1 μM
measure: inhibition at 1 µM (%)

• COc1ccccc1O[C@@H]1CCN(CCC2CCOc3ccccc32)[C@@H](C)C1 (stereo partly shown) = 52
• O=C(CN1CCC(Oc2ccccc2)CC1)c1ccccc1 = 34
• CN1CCN(CC2CCc3ccccc32)CC1COc1ccc(F)cc1 (stereo not shown) = 56
• Fc1ccc(N2CCC3(CCN(CC4Cc5ccccc5C4)C3)C2)cc1 (stereo not shown) = 25
• COc1ccc2c(c1)C(CN1CC[C@H](Oc3ccccc3OC)C[C@@H]1C)CC2 (stereo partly shown) = 46
• Fc1ccc(OC2CCCN(CC3CCc4ccccc43)CC2)cc1 (stereo not shown) = 44
• O=C1c2ccccc2CCN1CCN1CCCC(Oc2ccc(F)cc2)CC1 (stereo not shown) = 27
• COc1ccc2c(c1)C(CN1CCC(Oc3cccc(C)n3)CC1)CC2 (stereo not shown) = 34
• c1ccc2c(c1)CC1(CCN(CC3CCc4ccccc43)CC1)CO2 (stereo not shown) = 37
• COc1ccc2c(c1)C(CN1CCC(Oc3ccccc3C#N)CC1)CC2 (stereo not shown) = 37
• O[C@H](COC1CCCCC1)CN1CC2(CC(c3ccccc3)CO2)C1 (stereo partly shown) = 4
• c1ccc2c(c1)CCC1(CN(CC3CCc4ccccc43)C1)O2 (stereo not shown) = 16
• c1ccc(N2C[C@@H]3CC[C@H]2CN3CCC2COCc3ccccc32)cc1 (stereo partly shown) = 5
• O=C1CCC(c2ccc(F)cc2)=NN1CN1CCC(Oc2ccc(F)cc2)CC1 = 13
• c1ccc2c(c1)CCC1(CCN(CC3Cc4cccnc4C3)CC1)O2 (stereo not shown) = 37
• O[C@@H](CO[C@H]1CCc2ccccc21)CN1CCC(Oc2ccc(F)cc2)CC1 = 47
• O=C1c2ccccc2CCN1CCN1C[C@@H]2C[C@H]1CN2c1ccccc1 = 4
• Fc1ccc(OC2CCCCN(CC3CCc4ccccc43)C2)cc1 (stereo not shown) = 2
• O[C@H](COc1ccccc1)CN1CCC2(CCc3ccccc3O2)CC1 = -8
